- targetDesc: ER (Homo sapiens)
- Construct: T47D breast cancer cells were subcultured in cell culture medium; endogenous in cells; host or cells: T47D breast cancer cells
- Sequence (P03372 1-595): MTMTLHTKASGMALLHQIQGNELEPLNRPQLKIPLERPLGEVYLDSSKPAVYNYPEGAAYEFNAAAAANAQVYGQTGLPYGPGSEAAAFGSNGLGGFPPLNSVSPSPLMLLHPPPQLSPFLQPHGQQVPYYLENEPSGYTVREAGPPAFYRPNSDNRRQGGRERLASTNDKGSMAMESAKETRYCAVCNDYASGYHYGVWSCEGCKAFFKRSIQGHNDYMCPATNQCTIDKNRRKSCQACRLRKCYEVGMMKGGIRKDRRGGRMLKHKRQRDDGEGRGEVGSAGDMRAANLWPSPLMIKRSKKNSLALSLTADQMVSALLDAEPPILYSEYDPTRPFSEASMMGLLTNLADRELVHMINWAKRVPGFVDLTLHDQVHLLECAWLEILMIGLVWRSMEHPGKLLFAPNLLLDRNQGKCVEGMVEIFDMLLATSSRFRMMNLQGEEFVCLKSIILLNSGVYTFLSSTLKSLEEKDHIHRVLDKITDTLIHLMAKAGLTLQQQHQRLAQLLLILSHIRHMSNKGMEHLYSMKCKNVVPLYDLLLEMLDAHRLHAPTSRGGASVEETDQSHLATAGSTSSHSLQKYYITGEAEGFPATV
- assayComment: Degradation activities on ER (Western blotting) in T47D breast cancer cells
- Type: cell-based
- measurementParameters: compound concentration 1 nM, 24 h, Western blot
# Percentage reduction of ER listing for each entry below
measurementLabel: Percentage reduction of ER

1) O=C1CCC(N2C(=O)c3ccc(N4CC5(CCN(CC6CCN(c7ccc([C@H]8c9ccc(O)cc9OC[C@H]8c8ccccc8)cc7)CC6)CC5)C4)cc3C2=O)C(=O)N1 (some centres unmarked)
50%
2) O=C1CCC(N2Cc3cc(N4CC5(CN(CC6CCN(c7ccc([C@@H]8c9ccc(O)cc9OC[C@@H]8c8ccccc8)cc7)CC6)C5)C4)ccc3C2=O)C(=O)N1 (some centres unmarked)
77%
3) O=C1CCC(N2Cc3cc(N4CC5(CCN(CC6CCN(c7ccc([C@@H]8c9ccc(O)cc9OC[C@@H]8c8ccccc8F)cc7)CC6)CC5)C4)ccc3C2=O)C(=O)N1 (some centres unmarked) [Example 89]
52%
4) O=C1CCC(N2Cc3cc(N4CCC5(CCN(CC6CCN(c7ccc([C@@H]8c9ccc(O)cc9CC[C@@H]8c8ccccc8)cc7)CC6)C5)C4)ccc3C2=O)C(=O)N1 (some centres unmarked)
53%
5) O=C1CCC(N2Cc3cc(N4CC5(CN(CC6CCN(c7ccc([C@H]8c9ccc(O)cc9OC[C@H]8c8ccccc8)cc7)CC6)C5)C4)ccc3C2=O)C(=O)N1 (some centres unmarked)
59%
6) O=C1CCC(N2Cc3cc(N4CC5(CCN(CC6CCN(c7ccc([C@@H]8c9ccc(O)cc9OC[C@@H]8c8ccccc8F)cc7)CC6)CC5)C4)ccc3C2=O)C(=O)N1 (some centres unmarked) [Example 30]
62%
7) O=C1CCC(N2Cc3cc(N4CC5(CCN(CC6CCN(c7ccc([C@@H]8c9ccc(O)cc9OC[C@@H]8c8ccccc8)cc7)CC6)CC5)C4)ccc3C2=O)C(=O)N1 (some centres unmarked)
70%
8) O=C1CCC(N2Cc3cc(N4CCC5(CC4)CN(CC4CCN(c6ccc([C@@H]7c8ccc(O)cc8CC[C@@H]7c7ccccc7)cc6)CC4)C5)ccc3C2=O)C(=O)N1 (some centres unmarked)
78%
